The entries below come with measured growth values attached.
system: UACC-257 melanoma; test: NCI-60 one-dose screen, 48 h (100 = growth as untreated, 0 = no growth, -100 = all killed); details: 10 µM unless noted
Compounds without any hit were thinned out: in the full panel of roughly 83,000, 20% have a hit.
property: growth (%)

[[record]]
sample_smiles = "Cc1ccnc2c(OCc3ccccc3)cccc12"
result = 115

[[record]]
sample_smiles = "Clc1ccccc1-c1nc(Nc2nc3ccccc3s2)nc(C(Cl)(Cl)Cl)n1"
result = 83.9

[[record]]
sample_smiles = "CC1(C)CC[C@]2(C(=O)NCCNCCN)CC[C@]3(C)C(=CC[C@@H]4[C@@]5(C)CCC(=O)C(C)(C)[C@@H]5CC[C@]43C)[C@@H]2C1"
result = 92.8

[[record]]
sample_smiles = "Cc1cc(N2CCOCC2)nc(N(CCCNc2ccnc3cc(Cl)ccc23)Cc2ccco2)n1"
result = 85

[[record]]
sample_smiles = "CN1CCN(CC#CCn2c3c(c4ccccc42)C[C@]2(C)[C@H]4CC[C@@H]5[C@H]6[C@H]7OC(=O)[C@@]6(CCC7(C)C)CC[C@@]5(C)[C@]4(C)CC[C@H]2C3(C)C)CC1"
result = 109

[[record]]
sample_smiles = "C[C@H]1[C@H]2C3=CC[C@@H]4[C@@]5(C)C/C(=C/c6ccco6)C(=O)C(C)(C)[C@@H]5CC[C@@]4(C)[C@]3(C)CC[C@@]2(C(=O)N2CCOCC2)CC[C@@H]1C"
result = 88.4

[[record]]
sample_smiles = "CC1(C)C(=O)CC[C@]2(C)[C@H]3C(=O)C=C4[C@@H]5C[C@@](C)(C(=O)NCCNCCN)CC[C@]5(C)CC[C@@]4(C)[C@]3(C)CC[C@@H]12"
result = 101

